target: HLA-A*1101 (human); test: competition with 125I-labelled standard peptide on purified HLA-A*1101, gel filtration
quantity.kind: binding affinity ratio (IC50 of standard peptide / IC50 of test peptide)

Example entries begin here.
# binder, test.result
measured = [
    ("LLPPYASCH (modifications not checked) [PAP peptide … (position 306, 9 amino acids)]", 0.0002),
    ("LTELYFEK (modifications not checked) [PAP peptide LTELYFEK (position 315, 8 amino acids)]", 0.01),
    ("LLSLYGIHK (modifications not checked) [PAP peptide … (position 243, 9 amino acids)]", 0.2),
]

(I) LSLLSLYGIH (modifications not checked) [PAP peptide … (position 241, 10 amino acids)]
(II) LLSYPNKTH (modifications not checked) [PSM peptide … (position 116, 9 amino acids)]
Exercise: Just tell me: smaller binding affinity ratio (IC50 of standard peptide / IC50 of test peptide) value, I or II ? Answer = label.
Key: I
(I: 0.0002, II: 0.0003)
